Test system: CNS cancer cell lines (SNB75)
Settings: read-out: potency (at the LC50 level)
Description: In vitro biological activity studies were carried out at National Cancer Institute (USA). For each compound, dose response curves for each cell line were measured at a minimum of five concentrations at 10 fold dilutions. A protocol of 48 h continuous drug exposure was used and a sulforhodamine B (SRB) protein assay was used to estimate cell viability or growth. […]
quantity_kind: CC50 (µM)
Your answer should be a plain number; it is taken to be in µM.

Data request, read-out CC50, for `COc1cc2c(cc1OCCCC(=O)Nc1ccc3ccc4cccc5ccc1c3c45)N=C[C@@H]1CCCN1C2=O`
10

====

Tested on: leukemia cancer (SR)
Conditions: read-out: potency (at the LC50 level)
Experimental: In vitro biological activity studies were carried out at National Cancer Institute (USA). For each compound, dose response curves for each cell line were measured at a minimum of five concentrations at 10 fold dilutions. A protocol of 48 h continuous drug exposure was used and a sulforhodamine B (SRB) protein assay was used to estimate cell viability or growth. […]
quantity_kind: CC50 (µM)
Give the value in µM but do not write µM after it.

Param readout= CC50; system= leukemia cancer (SR); entry= `COc1cc2c(cc1OCCCC(=O)Nc1ccc3ccc4cccc5ccc1c3c45)N=C[C@@H]1CCCN1C2=O` ; returns value.
0.1
